Data origin, for the record: ChEMBL document CHEMBL4130367

Test system: PC-3
Assay: Cytotoxicity against human PC3 cells assessed as reduction in cell viability after 72 hrs by MTT assay
Assay type: functional, cell-based
Settings: PC-3, 72 h
endpoint_name: pIC50
pIC50 is defined as minus the log10 of a concentration measured in mol/L.

# input // pIC50 lookup, key: COC(=O)[C@]1(C)CCC[C@]2(C)c3ccc(C(C)C)c(NC(=O)Cn4cc(-c5cc(OC)cc(OC)c5)nn4)c3CC[C@@H]12
# output 5.28

# input I am curious: what pIC50 value has been reported for CC(C)[C@]12O[C@H]1[C@@H]1O[C@@]13[C@@]1(C)CCC4=C(COC4=O)[C@@H]1C[C@@H]1O[C@@]13C2=O [TRIPTONIDE] ?
# output 7.70

# input pIC50 for COC(=O)[C@]1(C)CCC[C@]2(C)c3ccc(C(C)C)c(NC(=O)Cn4cc(-c5cccc(NC(=O)OC(C)(C)C)c5)nn4)c3CC[C@@H]12 ?
# output 6.05

# input Looking for the measured pIC50 of COC(=O)c1nnn(CC(=O)Nc2c(C(C)C)ccc3c2CC[C@H]2[C@](C)(C(=O)OC)CCC[C@]32C)c1C(=O)OC , can you help?
# output 4.31

----------
Assay: Metabolic stability in rat liver microsomes assessed as parent compound remaining after 120 mins in presence of NADPH by HPLC analysis
Type: ADME, microsome
Conditions: read-out: Stability
endpoint_name: remaining at 2 h (%)
Answer format: numeric, % implied, no suffix.

# input Value lookup for remaining at 2 h; key = COC(=O)[C@]1(C)CCC[C@]2(C)c3ccc(C(C)C)c(NC(=O)Cn4cc(-c5cccc(NC(=O)OC(C)(C)C)c5)nn4)c3CC[C@@H]12
# output 58.4

----------
For each of the molecules below, state its IC50.
Test system: SK-OV-3
Test: Cytotoxicity against human SKOV3 cells assessed as reduction in cell viability after 72 hrs by MTT assay
Assay type: functional, cell-based
Details: SK-OV-3, 72 h

# input For the molecule COC(=O)[C@]1(C)CCC[C@]2(C)c3ccc(C(C)C)c(NC(=O)CN=[N+]=[N-])c3CC[C@@H]12 , what IC50 is on record?
# output > 100 µM

# input Request the reported IC50 associated with COC(=O)[C@]1(C)CCC[C@]2(C)c3ccc(C(C)C)c(NC(=O)Cn4cc(-c5ccncc5)nn4)c3CC[C@@H]12
# output > 100 µM

# input // returns reported IC50 for input COC(=O)[C@]1(C)CCC[C@]2(C)c3ccc(C(C)C)c(NC(=O)Cn4cc(-c5cccs5)nn4)c3CC[C@@H]12
# output > 100 µM

----------
System: PC-3
Assay: Cytotoxicity against human PC3 cells assessed as reduction in cell viability after 72 hrs by MTT assay
Format: functional, cell-based
Conditions: PC-3, 72 h
I'd appreciate it if you could supply IC50 values for the items below.

# input // map COC(=O)[C@]1(C)CCC[C@]2(C)c3ccc(C(C)C)c(NC(=O)Cn4cc(-c5cccs5)nn4)c3CC[C@@H]12 to recorded IC50 (system: PC-3)
# output > 100 µM

# input Lab note: need IC50 for COC(=O)[C@]1(C)CCC[C@]2(C)c3ccc(C(C)C)c(NC(=O)Cn4cc(CBr)nn4)c3CC[C@@H]12 on PC-3, anyone have it?
# output > 100 µM

# input Form field: IC50 recorded for COC(=O)[C@]1(C)CCC[C@]2(C)c3ccc(C(C)C)c(NC(=O)CN=[N+]=[N-])c3CC[C@@H]12 with PC-3 (enter value)
# output > 100 µM
